Assay: melting temperature; fluorescence melt of hairpins on a sequencing array, two-state fit, raised by 9.35 °C to match UV melts
Details: sodium 0.088 M
reportedProperty: Tm (°C)
# number only, unit °C dropped from output

Please review the following examples before continuing.
{"columns": ["orderedResidues", "Tm [°C]"],
 "data": [
  ["GACCACGAAAGTGACGTC ((((((....)))..)))", 37.5],
  ["GCGTCTGAACGC ((((....))))", 54],
  ["GCAACTGGAAACGGTTGC (((((.(....).)))))", 54.2],
  ["GCGATAGGAAACTATTGC ((.((((....)))).))", 45.6],
  ["GTTTGGGGAAACCTGAAC (((..((....))..)))", 32],
  ["GTCGGCGAAAGCCGAGAC ((((((....)))..)))", 55.6],
  ["GATTCCGAAAGGAGGATC ((((((....)))..)))", 30.4],
  ["GCGTGCATACGC ((((....))))", 68.7],
  ["GTTGCAGGAAACTGCAGC (.(((((....))))).)", 51.5],
  ["GTGGCTGGAAACAGCTGC (..((((....))))..)", 47.4]
]}

Ask: Consider the sequence shown here: GGGCACGGAAACGTGCTC (.(((((....))))).) What is its recorded Tm?
Result: 63.2

Ask: // same read-out, input: CGCGTACGGAAACGTGCG (((..(((....))))))
Result: 50

###

Assay: melting temperature; fluorescence melt of hairpins on a sequencing array, two-state fit, raised by 9.35 °C to match UV melts
Settings: sodium 0.088 M
reportedProperty: Tm (°C)
# number only, unit °C dropped from output

Please review the following examples before continuing.
{"columns": ["orderedResidues", "unitTag", "Tm"],
 "data": [
  ["GTTTCCGGAAACGGGAAC (((.(((....))).)))", "°C", 54],
  ["GATCGATTTTTCGATC ((((((....))))))", "°C", 54.7],
  ["GCTAGGACGAAAGTCAGC (((..(((....))))))", "°C", 42.7]
]}

Ask: Consider the sequence shown here: CGCCGGCGGAAACGCGCG (((..(((....)))))) What is its recorded Tm?
Result: 51.5

Ask: // same read-out, input: GCAATCGAAAGATGTGC ((((((....))).)))
Result: 39.5

Ask: // same read-out, input: GAACTAGGAAACTAGCTC ((.((((....)))).))
Result: 29

Ask: // same read-out, input: GCTTGCGAAAGCATGAGC ((((((....)))..)))
Result: 52.6

Ask: // same read-out, input: GATCAGGGGCCTGATC ((((((....))))))
Result: 53

Ask: // same read-out, input: GCGCGGCGAAAGCCTGGC ((..(((....)))..))
Result: 47.9

Ask: // same read-out, input: GATCGTTTCTACGATC ((((((....))))))
Result: 55.8

Ask: // same read-out, input: GATCTAGCGAAAGCTATC (((..(((....))))))
Result: 22.8

Ask: // same read-out, input: GTTGCCGAAAGGCATAAC ((((((....)))..)))
Result: 36.8

Ask: // same read-out, input: GAATTTGGAAACGAATTC (((((.(....).)))))
Result: 38.8

###

Test: melting temperature; fluorescence melt of hairpins on a sequencing array, two-state fit, raised by 9.35 °C to match UV melts
Settings: sodium 0.088 M
Quick list: Tm per entry.
# number only, unit °C dropped from output

{"columns": ["orderedResidues", "unitTag", "Tm"],
 "data": [
  ["GGAACGCCGAAAGGCTCC (((..(((....))))))", "°C", 33],
  ["GAAGTGGGAAACCACCTC ((.((((....)))).))", "°C", 32.2],
  ["GGCAACACGAAAGTGGCC (((..(((....))))))", "°C", 52.6],
  ["GGGCACGAAAGTGCGCCC ((((((....)))..)))", "°C", 54.9],
  ["GAGACCGAAAGGTTCTC ((((((....))).)))", "°C", 54.2]
]}

Ask: Consider the sequence shown here: GAGTTGCGAAAGCAGCTC (((.(((....))).))) What is its recorded Tm?
Result: 62.1

Ask: // same read-out, input: GTAGGGAAACCTAC (((((....)))))
Result: 46.2

Ask: // same read-out, input: GATCGCGAGCGCGATC ((((((....))))))
Result: 67.2

Ask: // same read-out, input: GCACACGAAAGTGATGC ((((((....))).)))
Result: 54.5

Ask: // same read-out, input: GGATCTCCGAAAGGATCC (((..(((....))))))
Result: 42.1

###

Test: melting temperature; fluorescence melt of hairpins on a sequencing array, two-state fit, raised by 9.35 °C to match UV melts
Details: sodium 0.088 M
reportedProperty: Tm (°C)
# number only, unit °C dropped from output

Please review the following examples before continuing.
{"columns": ["orderedResidues", "reportedMeasurement"],
 "data": [
  ["GTTGCTGGAAACAGTAGC (.(.(((....))).).)", 35.3],
  ["GTGACCGAAAGGTCCCAC ((((((....)))..)))", 35.9],
  ["GACAATGGAAACATCGTC (((.(((....))).)))", 32.5]
]}

Ask: Consider the sequence shown here: GGCGACGAAAGTCGAGCC ((((((....)))..))) What is its recorded Tm?
Result: 55.8

Ask: // same read-out, input: GATCGGTTCTCCGATC ((((((....))))))
Result: 60.6

Ask: // same read-out, input: GTCGGGGGAAACTCCGGC (.(((.(....).))).)
Result: 47.2

Ask: // same read-out, input: GCCGTTCCGAAAGGAGGC (((..(((....))))))
Result: 50.7

Ask: // same read-out, input: GCTACTCGAAAGAGGAGC (((.(((....))).)))
Result: 61.6

Ask: // same read-out, input: GCGATTAGTCGC ((((....))))
Result: 51.4

Ask: // same read-out, input: GACTACGAAAGTACGGTC ((((((....)))..)))
Result: 32

Ask: // same read-out, input: GTAATGGGAAACCATCAC ((.((((....)))).))
Result: 28.8

Ask: // same read-out, input: GCTCACGAAAGTGCTAGC ((((((....)))..)))
Result: 35.8

###

Test: folding enthalpy; higher = less favourable; fluorescence melt of hairpins on a sequencing array, two-state fit
Details: sodium 0.088 M
reportedProperty: folding enthalpy (kcal/mol)
# number only, unit kcal/mol dropped from output

Please review the following examples before continuing.
{"columns": ["orderedResidues", "unitTag", "reportedMeasurement"],
 "data": [
  ["GATCAAAGCCTTGATC ((((((....))))))", "kcal/mol", -28.4],
  ["GATCTATCCATAGATC ((((((....))))))", "kcal/mol", -38.1],
  ["GCCGTGCGAAAGCTCCGC ((.(.((....)).).))", "kcal/mol", -11.2]
]}

Ask: Consider the sequence shown here: GCTTAGCGAAAGCTTTGC ((..(((....)))..)) What is its recorded folding enthalpy?
Result: -14.8

Ask: // same read-out, input: GCGCGGCGAAAGCAGTGC ((.(.((....)).).))
Result: -29.1

###

Assay: folding enthalpy; higher = less favourable; fluorescence melt of hairpins on a sequencing array, two-state fit
Conditions: sodium 0.088 M
Think of -20 kcal/mol as a floor: if folding enthalpy stands on it or above, it is satisfied; beneath it, not satisfied.

{"columns": ["orderedResidues", "group"],
 "data": [
  ["GTCGACGAAAGTCCCGAC ((((((....)))..)))", "satisfied"]
]}

Ask: Hello, I need to know if GTGGGCGAAAGCCCCAC ((((((....))).))) has measured folding enthalpy not below -20 kcal/mol. Thanks!
Result: satisfied

Ask: // same read-out, input: GCTCGGCGAAAGCCATGC ((..(((....)))..))
Result: satisfied

Ask: // same read-out, input: GTTCGTCGAAAGACTAAC (((.(((....))).)))
Result: not satisfied

Ask: // same read-out, input: GCCTGTACGAAAGTAGGC (((..(((....))))))
Result: not satisfied

Ask: // same read-out, input: CGTTCACGGAAACGTACG (((..(((....))))))
Result: satisfied
